From: paper PMC5869772

# study.target: BATF;JUNB (human;human, UniProt Q16520;P17275 1-125;148-347, |)
# Sequence 1: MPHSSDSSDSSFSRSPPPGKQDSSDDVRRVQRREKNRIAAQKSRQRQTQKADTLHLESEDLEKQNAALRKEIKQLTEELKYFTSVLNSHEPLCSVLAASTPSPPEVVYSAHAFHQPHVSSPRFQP
# Sequence 2: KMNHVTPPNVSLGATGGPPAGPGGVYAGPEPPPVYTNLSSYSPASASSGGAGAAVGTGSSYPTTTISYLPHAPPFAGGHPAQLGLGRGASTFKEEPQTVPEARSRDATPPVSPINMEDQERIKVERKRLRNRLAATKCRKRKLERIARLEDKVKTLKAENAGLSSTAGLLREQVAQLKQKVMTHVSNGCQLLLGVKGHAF
# method.description: Spec-seq (EMSA and sequencing of bound and unbound bands); 100 nM BATFx-JUNB, 1 uM dsDNA library, 50 mM K acetate, 20 mM Tris-acetate, 10 mM Mg acetate, 100 ug/ml BSA, pH 7.9, 10% glycerol, 30 min on ice; native 9% PAGE at 4 C; low values mean tight binding
# setup.conditions: protein: recombinant;recombinant; tags: N-terminal mCherry-TEV, cleaved off;C-terminal 6His; copies: 1;1; dsDNA, one strand shown
assay.endpoint: binding signal (kT)
Answers are plain numbers, in kT.

- residues: "GATAGTCTCATTTTCACCCCGTGAAATGAGTCCTTTGTTCCATTACAGTATCTGT"
  study.target: "BATF;JUNB (human;human, UniProt Q16520;P17275 1-125;148-347, |)"
  binding signal, kT: 0.17
- residues: "GATAGTCTCATTTTCACCCCGTGAAATGACTTAGTTGTTCCATTACAGTATCTGT"
  study.target: "BATF;JUNB (human;human, UniProt Q16520;P17275 1-125;148-347, |)"
  binding signal, kT: 0.0125
- residues: "GATAGTCTCATTTTCACCCCGTGAAATGTCGTCATTGTTCCATTACAGTATCTGT"
  study.target: "BATF;JUNB (human;human, UniProt Q16520;P17275 1-125;148-347, |)"
  binding signal, kT: -0.357
- residues: "GATAGTCTCATTTTCACCCCGTGAAATGACGCAATTGTTCCATTACAGTATCTGT"
  study.target: "BATF;JUNB (human;human, UniProt Q16520;P17275 1-125;148-347, |)"
  binding signal, kT: -0.574
- residues: "GATAGTCTCATTTTCACCCCGTGAAATGAGGCATTTGTTCCATTACAGTATCTGT"
  study.target: "BATF;JUNB (human;human, UniProt Q16520;P17275 1-125;148-347, |)"
  binding signal, kT: 0.568
- residues: "GATAGTCTCATTTTCACCCCGTGAAATGAGGTCATTGTTCCATTACAGTATCTGT"
  study.target: "BATF;JUNB (human;human, UniProt Q16520;P17275 1-125;148-347, |)"
  binding signal, kT: -0.348
- residues: "GATAGTCTCATTTTCACCCCGTGAAATGAGCCATTTGTTCCATTACAGTATCTGT"
  study.target: "BATF;JUNB (human;human, UniProt Q16520;P17275 1-125;148-347, |)"
  binding signal, kT: 0.392
- residues: "GATAGTCTCATTTTCACCCCGTGAAAAGAGTCATTTGTTCCATTACAGTATCTGT"
  study.target: "BATF;JUNB (human;human, UniProt Q16520;P17275 1-125;148-347, |)"
  binding signal, kT: -0.155
- residues: "GATAGTCTCATTTTCACCCCGTGAAATGAGTCGTTTGTTCCATTACAGTATCTGT"
  study.target: "BATF;JUNB (human;human, UniProt Q16520;P17275 1-125;148-347, |)"
  binding signal, kT: -0.00852
- residues: "GATAGTCTCATTTTCACCCCGTGAAATGACACATTTGTTCCATTACAGTATCTGT"
  study.target: "BATF;JUNB (human;human, UniProt Q16520;P17275 1-125;148-347, |)"
  binding signal, kT: -0.137

Please supply binding signal for each of the following items, keeping them in order.
1. GATAGTCTCATTTTCACCCCGTGAAATAAGTCATTTGTTCCATTACAGTATCTGT
2. GATAGTCTCATTTTCACCCCGTGAAATGAGTTATTTGTTCCATTACAGTATCTGT
3. GATAGTCTCATTTTCACCCCGTGAAATTGCGTCATTGTTCCATTACAGTATCTGT

1. -0.248
2. 0.153
3. -0.89

Please supply binding signal for each of the following items, keeping them in order.
1. GATAGTCTCATTTTCACCCCGTGAAAGTGCGTCATTGTTCCATTACAGTATCTGT
2. GATAGTCTCATTTTCACCCCGTGAAATGACTGAGTTGTTCCATTACAGTATCTGT
3. GATAGTCTCATTTTCACCCCGTGAAATTGGGTCATTGTTCCATTACAGTATCTGT
4. GATAGTCTCATTTTCACCCCGTGAAATGAGTGACTTGTTCCATTACAGTATCTGT
5. GATAGTCTCATTTTCACCCCGTGAAATGAGTTACTTGTTCCATTACAGTATCTGT
6. GATAGTCTCATTTTCACCCCGTGAAAGTAAGTCATTGTTCCATTACAGTATCTGT

1: -0.695; 2: -0.132; 3: 0.183; 4: 0.0645; 5: 0.198; 6: -0.0818

Please supply binding signal for each of the following items, keeping them in order.
1. GATAGTCTCATTTTCACCCCGTGAAAGGGAGTCATTGTTCCATTACAGTATCTGT
2. GATAGTCTCATTTTCACCCCGTGAAATGACTCAGTTGTTCCATTACAGTATCTGT

1. -0.148
2. -0.786

Please supply binding signal for each of the following items, keeping them in order.
1. GATAGTCTCATTTTCACCCCGTGAAATGACGCAGTTGTTCCATTACAGTATCTGT
2. GATAGTCTCATTTTCACCCCGTGAAATTACTCATTTGTTCCATTACAGTATCTGT
3. GATAGTCTCATTTTCACCCCGTGAAATGAGCCAATTGTTCCATTACAGTATCTGT
4. GATAGTCTCATTTTCACCCCGTGAAATGACTTCATTGTTCCATTACAGTATCTGT
5. GATAGTCTCATTTTCACCCCGTGAAATGACGTCGTTGTTCCATTACAGTATCTGT

-0.301
-0.755
0.591
-0.183
-0.291
